- System: Candida albicans
- assay_summary: Antifungal activity against fluconazole-resistant Candida albicans 01010 after 24 hrs
- Type: functional
outcome_measure: MIC (µM)
The answer is to be given in µM; state only the numeric part.

Inquiry: If you can, please state the reported MIC value of CCCCCCCCCCNC1CCc2ccc(OC)cc2C1 (stereo unspecified) .
Reply text: 4

Inquiry: If you can, please state the reported MIC value of CCCCCCCCCCNC1CCc2cccc(O)c2C1 (stereo unspecified) .
Reply text: 16

Inquiry: If you can, please state the reported MIC value of CCCCCCCCCNC1CCc2cc(O)ccc2C1 (stereo unspecified) .
Reply text: 4

Inquiry: If you can, please state the reported MIC value of CCCCCCCCCNC1CCc2cc(OC)ccc2C1 (stereo unspecified) .
Reply text: 0.125

Inquiry: If you can, please state the reported MIC value of "CC(=O)N1CCN(c2ccc(OC[C@@H]3CO[C@@](Cn4ccnc4)(c4ccc(Cl)cc4Cl)O3)cc2)CC1" .
Reply text: 8
